Attribution: ChEMBL document CHEMBL3885861

- Species: Rattus norvegicus
- assay.notes: Open TG-GATES - Regimen: Single
- Type: toxicity, organism-based, Sprague-Dawley
- Set-up: regimen Single, gender Male, age 6 weeks
- test.conditions: in vivo, po, 0 mg/kg, 3 h, tissue Plasma, route gavage, dose level Control
attribute.measured: IP (mg/dL)
Write the number in mg/dL without appending the unit.

Here's what some known entries look like.
compound: Nc1nc(N)c2nc(-c3ccccc3)c(N)nc2n1
IP (mg/dL): 9.2

compound: CC(=N)S [THIOACETAMIDE]
IP (mg/dL): 9.1

compound: C[C@](N)(Cc1ccc(O)c(O)c1)C(=O)O [METHYLDOPA]
IP (mg/dL): 9.4

compound: CCN1CCCC1CNC(=O)c1cc(S(N)(=O)=O)ccc1OC (stereo not given) [SULPIRIDE]
IP (mg/dL): 8.9

Memo: O=C(O)c1cccnc1 [NIACIN] , reported IP: 9.1

Memo: C#C[C@]1(O)CC[C@H]2[C@@H]3CCc4cc(O)ccc4[C@H]3CC[C@@]21C [ETHINYL ESTRADIOL] , reported IP: 8.6

Memo: O=C(N[C@H](CO)[C@H](O)c1ccc([N+](=O)[O-])cc1)C(Cl)Cl [CHLORAMPHENICOL] , reported IP: 8.6

Memo: CCC(C)(C)C(=O)O[C@H]1C[C@@H](C)C=C2C=C[C@H](C)[C@H](CC[C@@H]3C[C@@H](O)CC(=O)O3)[C@H]21 [SIMVASTATIN] , reported IP: 9.1

Memo: CC(C)C(=O)Nc1ccc([N+](=O)[O-])c(C(F)(F)F)c1 [FLUTAMIDE] , reported IP: 9.1

Memo: CC(C)(S)[C@@H](N)C(=O)O [PENICILLAMINE] , reported IP: 8.4

====

- Organism: Rattus norvegicus
- assay.notes: Open TG-GATES - Regimen: Single
- Assay type: toxicity, organism-based, Sprague-Dawley
- Design: regimen Single, gender Male, age 6 weeks
- test.conditions: in vivo, po, 0 mg/kg, 24 h, tissue Plasma, route gavage, dose level Control
# RALB annotations
Write the number in g/dL without appending the unit.

molecule: Oc1ncnc2[nH]ncc12 [ALLOPURINOL]
measure.unit: g/dL
RALB: 3.8
--
molecule: CCN1CCCC1CNC(=O)c1cc(S(N)(=O)=O)ccc1OC (stereo unspecified) [SULPIRIDE]
measure.unit: g/dL
RALB: 2.5
--
molecule: CN1C(=O)OC(C)(C)C1=O [TRIMETHADIONE]
measure.unit: g/dL
RALB: 2.6
--
molecule: CCC(C)(C)C(=O)O[C@H]1C[C@@H](C)C=C2C=C[C@H](C)[C@H](CC[C@@H]3C[C@@H](O)CC(=O)O3)[C@H]21 [SIMVASTATIN]
measure.unit: g/dL
RALB: 3.7
--
molecule: O=C(O)c1cccnc1 [NIACIN]
measure.unit: g/dL
RALB: 3

Attention now turns to another entry.
Memo: CC(=O)Oc1cc(C(C)C)c(OCCN(C)C)cc1C [MOXISYLYTE] , reported RALB: 3.1

====

# LIVER annotations
- Species: Rattus norvegicus
- assay.notes: Open TG-GATES - Regimen: Daily Repeat
- Type: toxicity, organism-based, Sprague-Dawley
- Parameters: regimen Daily Repeat, gender Male, age 6 weeks
- test.conditions: in vivo, po, 0 mg/kg, […], tissue Liver, route gavage, dose level Control, time 7 day
Write the number in g without appending the unit.

molecule: CCN1CCCC1CNC(=O)c1cc(S(N)(=O)=O)ccc1OC (stereo not drawn) [SULPIRIDE]
LIVER, g: 12.3
//
molecule: CC(C)(S)[C@@H](N)C(=O)O [PENICILLAMINE]
LIVER, g: 13

Memo: CCC(C)(C)C(=O)O[C@H]1C[C@@H](C)C=C2C=C[C@H](C)[C@H](CC[C@@H]3C[C@@H](O)CC(=O)O3)[C@H]21 [SIMVASTATIN] , reported LIVER: 12.2
